Molecular target: T1, human G-CSF receptor (human, UniProt Q99062 25-836)
T1 sequence (looked up): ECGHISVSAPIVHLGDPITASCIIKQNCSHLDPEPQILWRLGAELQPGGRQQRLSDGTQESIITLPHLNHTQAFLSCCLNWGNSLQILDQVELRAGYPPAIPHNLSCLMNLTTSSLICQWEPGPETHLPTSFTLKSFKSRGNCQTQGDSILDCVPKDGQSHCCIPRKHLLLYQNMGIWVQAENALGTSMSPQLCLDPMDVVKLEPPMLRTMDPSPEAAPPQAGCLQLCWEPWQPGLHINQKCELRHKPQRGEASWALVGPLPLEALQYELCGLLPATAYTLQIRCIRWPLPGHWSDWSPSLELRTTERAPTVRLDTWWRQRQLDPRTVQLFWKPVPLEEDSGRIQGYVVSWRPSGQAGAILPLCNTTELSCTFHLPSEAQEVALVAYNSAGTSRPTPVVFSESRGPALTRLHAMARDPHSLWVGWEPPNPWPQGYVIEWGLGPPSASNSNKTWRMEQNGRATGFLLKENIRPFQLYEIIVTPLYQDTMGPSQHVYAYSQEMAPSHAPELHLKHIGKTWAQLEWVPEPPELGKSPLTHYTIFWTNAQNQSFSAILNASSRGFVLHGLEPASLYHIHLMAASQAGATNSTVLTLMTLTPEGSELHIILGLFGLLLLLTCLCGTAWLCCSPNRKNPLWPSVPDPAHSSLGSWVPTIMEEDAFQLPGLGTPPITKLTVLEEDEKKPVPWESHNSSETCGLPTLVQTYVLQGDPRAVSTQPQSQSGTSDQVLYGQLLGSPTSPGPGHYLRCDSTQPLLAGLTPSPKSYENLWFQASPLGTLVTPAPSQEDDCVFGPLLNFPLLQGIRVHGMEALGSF
Experiment: cell-based or functional assay
EC50 (% of hG-CSF) non-conjugated values by entry
observation.type: EC50 (% of hG-CSF) non-conjugated

binder	value.measured
G-CSF variant 23Q, non-conjugated (ligand) TPLGPASSLPQSFLLKCLEQVRQIQGDGAALQEKLCATYKLCHPEELVLLGHSLGIPWAPLSSCPSQALQLAGCLSQLHSGLFLYQGLLQALEGISPELGPTLDTLQLDVADFATTIWQQMEELGMAPALQPTQGAMPAFASAFQRRAGGVLVASHLQSFLEVSYRVLRHLAQP	80 % of hG-CSF
G-CSF variant 34A, non-conjugated (ligand) TPLGPASSLPQSFLLKCLEQVRKIQGDGAALQEALCATYKLCHPEELVLLGHSLGIPWAPLSSCPSQALQLAGCLSQLHSGLFLYQGLLQALEGISPELGPTLDTLQLDVADFATTIWQQMEELGMAPALQPTQGAMPAFASAFQRRAGGVLVASHLQSFLEVSYRVLRHLAQP	80 % of hG-CSF
G-CSF variant K16/34/40R Q90K Q120K S142K, non-conjugated (ligand) TPLGPASSLPQSFLLRCLEQVRKIQGDGAALQERLCATYRLCHPEELVLLGHSLGIPWAPLSSCPSQALQLAGCLSQLHSGLFLYQGLLKALEGISPELGPTLDTLQLDVADFATTIWQKMEELGMAPALQPTQGAMPAFAKAFQRRAGGVLVASHLQSFLEVSYRVLRHLAQP	10 % of hG-CSF
